Target: 5-hydroxytryptamine receptor 1B (Homo sapiens, UniProt P28222)
Sequence (P28222 whole entry): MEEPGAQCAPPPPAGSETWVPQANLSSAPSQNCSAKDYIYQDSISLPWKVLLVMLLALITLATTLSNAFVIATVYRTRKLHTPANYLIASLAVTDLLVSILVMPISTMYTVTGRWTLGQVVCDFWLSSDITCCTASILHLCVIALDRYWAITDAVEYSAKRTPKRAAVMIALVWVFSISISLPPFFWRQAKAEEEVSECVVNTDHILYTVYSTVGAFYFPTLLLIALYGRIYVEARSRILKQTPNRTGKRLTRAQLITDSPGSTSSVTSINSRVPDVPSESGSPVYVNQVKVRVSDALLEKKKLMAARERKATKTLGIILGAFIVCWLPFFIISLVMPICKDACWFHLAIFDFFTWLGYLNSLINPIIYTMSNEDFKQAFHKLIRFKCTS
Assay: Ability to displace [3H]5-HT from recombinant human 5-hydroxytryptamine 1B receptor stably expressed in CHO cells determined in vitro
readout type: IC50 (nM)
Respond with the bare value in nM.

Here are 4 compounds together with their reported answers.
query smiles	experimental system	readout type	unit label	experimental result
CN(Cc1ccccc1)CC1(O)CCN(CCCc2c[nH]c3ccc(-n4cnnc4)cc23)CC1	5-hydroxytryptamine receptor 1B (Homo sapiens, UniProt P28222)	IC50	nM	96
OC1(CNCc2ccccn2)CCN(CCCc2c[nH]c3ccc(-n4cnnc4)cc23)CC1	5-hydroxytryptamine receptor 1B (Homo sapiens, UniProt P28222)	IC50	nM	55
CC(=O)Nc1ccc(CNCC2(O)CCN(CCCc3c[nH]c4ccc(-n5cnnc5)cc34)CC2)cc1	5-hydroxytryptamine receptor 1B (Homo sapiens, UniProt P28222)	IC50	nM	30
CC(C)(C)CNCC1(O)CCN(CCCc2c[nH]c3ccc(-n4cnnc4)cc23)CC1	5-hydroxytryptamine receptor 1B (Homo sapiens, UniProt P28222)	IC50	nM	85

The recorded IC50 with 5-hydroxytryptamine receptor 1B (Homo sapiens, UniProt P28222) for `CC1(C)CCCN(CC2(O)CCN(CCCc3c[nH]c4ccc(-n5cnnc5)cc34)CC2)C1` was 19

Considering `Cc1ccccc1CN(C)CC1(O)CCN(CCCc2c[nH]c3ccc(-n4cnnc4)cc23)CC1` , its IC50 with 5-hydroxytryptamine receptor 1B (Homo sapiens, UniProt P28222) was recorded as 89

###

Below is a list of entries, each paired with its recorded ED50 value.
Molecular target: 5-hydroxytryptamine receptor 1D (Homo sapiens, UniProt P28221)
Sequence (P28221 whole entry): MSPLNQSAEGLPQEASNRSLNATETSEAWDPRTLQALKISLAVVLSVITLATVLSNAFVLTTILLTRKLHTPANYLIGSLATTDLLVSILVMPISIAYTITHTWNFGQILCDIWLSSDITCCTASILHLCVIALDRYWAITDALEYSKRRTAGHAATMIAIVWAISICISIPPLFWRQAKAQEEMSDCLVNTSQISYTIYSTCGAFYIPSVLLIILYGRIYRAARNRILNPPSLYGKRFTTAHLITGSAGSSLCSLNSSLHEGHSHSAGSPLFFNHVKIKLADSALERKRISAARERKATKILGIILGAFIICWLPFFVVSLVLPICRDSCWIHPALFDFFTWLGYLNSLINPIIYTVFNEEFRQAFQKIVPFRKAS
Test: Measurement of agonist-induced [35S]-GTP gamma-S binding in CHO cells stably transfected with 5-hydroxytryptamine 1D receptor
Type: functional, cell-based
Value expressed in nM; do not type the unit.

Previously resolved entries follow.
query smiles	experimental result
CN(Cc1ccccc1)CC1(O)CCN(CCCc2c[nH]c3ccc(-n4cnnc4)cc23)CC1	3.8
CN(CC1CCCCC1)CC1(O)CCN(CCCc2c[nH]c3ccc(-n4cnnc4)cc23)CC1	1.4

Kindly consider the entry below.
5-hydroxytryptamine receptor 1D (Homo sapiens, UniProt P28221) assay, compound `CC(C)CN(C)CC1(O)CCN(CCCc2c[nH]c3ccc(-n4cnnc4)cc23)CC1` , recorded ED50 = 1.7

###

Attribute: IC50
Target: 5-hydroxytryptamine receptor 1D (Homo sapiens, UniProt P28221)
Test: Ability to displace [3H]-5-HT from recombinant human 5-hydroxytryptamine 1D receptor stably expressed in CHO cells determined in vitro
Provide only the numeric value, understood in nM.

Solved entries:
query smiles	readout type	experimental result
OC1(CNCC2CC2)CCN(CCCc2c[nH]c3ccc(-n4cnnc4)cc23)CC1	IC50	4.5
CN(Cc1ccccc1)CC1(O)CCN(CCCc2c[nH]c3ccc(-n4cnnc4)cc23)CC1	IC50	1.2

`CN(CC1CCCCC1)CC1(O)CCN(CCCc2c[nH]c3ccc(-n4cnnc4)cc23)CC1` tested on 5-hydroxytryptamine receptor 1D (Homo sapiens, UniProt P28221) gave IC50: 1.2

###

Biological target: 5-hydroxytryptamine receptor 1B (Homo sapiens)
Test: Ability to displace [3H]5-HT from recombinant human 5-hydroxytryptamine 1B receptor stably expressed in CHO cells determined in vitro
readout type: IC50 (nM)
The figure you give is taken to be in nM; do not add the unit.

// worked examples, IC50 included
query smiles	IC50, nM
CC(C)CN(C)CC1(O)CCN(CCCc2c[nH]c3ccc(-n4cnnc4)cc23)CC1	30
CC(C)(C)OC(=O)NCC1(O)CCN(CCCc2c[nH]c3ccc(-n4cnnc4)cc23)CC1	340
CN(CC1CC1)CC1(O)CCN(CCCc2c[nH]c3ccc(-n4cnnc4)cc23)CC1	27
OC1(CNCc2ccccc2)CCN(CCCc2c[nH]c3ccc(-n4cnnc4)cc23)CC1	47
CN(CC(C)(C)C)CC1(O)CCN(CCCc2c[nH]c3ccc(-n4cnnc4)cc23)CC1	61

# `Cc1ccccc1CNCC1(O)CCN(CCCc2c[nH]c3ccc(-n4cnnc4)cc23)CC1` with 5-hydroxytryptamine receptor 1B (Homo sapiens): IC50 is 83

IC50 on 5-hydroxytryptamine receptor 1B (Homo sapiens) for `OC1(CNCC2CC2)CCN(CCCc2c[nH]c3ccc(-n4cnnc4)cc23)CC1` is 57

// assay 5-hydroxytryptamine receptor 1B (Homo sapiens), entry `CN(CC1CCCCC1)CC1(O)CCN(CCCc2c[nH]c3ccc(-n4cnnc4)cc23)CC1` , IC50 value = 27

# lookup: `OC1(Cc2ccccc2)CCN(CCCc2c[nH]c3ccc(-n4cnnc4)cc23)CC1` on 5-hydroxytryptamine receptor 1B (Homo sapiens), IC50 = 32

###

Target: UniProt:P28221
Experiment: Ability to displace [3H]-5-HT from recombinant human 5-hydroxytryptamine 1D receptor stably expressed in CHO cells determined in vitro
readout type: pIC50
Note: pIC50 values are expressed as the negative base-10 logarithm of concentration in M.

Before answering, review these 8 worked examples.
query smiles	experimental result
CN(CC(C)(C)C)CC1(O)CCN(CCCc2c[nH]c3ccc(-n4cnnc4)cc23)CC1	8.74
CN(CC1CC1)CC1(O)CCN(CCCc2c[nH]c3ccc(-n4cnnc4)cc23)CC1	8.87
CC(C)CN(C)CC1(O)CCN(CCCc2c[nH]c3ccc(-n4cnnc4)cc23)CC1	9.19
CC1(C)CCCN(CC2(O)CCN(CCCc3c[nH]c4ccc(-n5cnnc5)cc34)CC2)C1	9.19
CC(C)(C)CNCC1(O)CCN(CCCc2c[nH]c3ccc(-n4cnnc4)cc23)CC1	8.14
CC(=O)Nc1ccc(CNCC2(O)CCN(CCCc3c[nH]c4ccc(-n5cnnc5)cc34)CC2)cc1	7.96
OC1(CNCc2ccccc2)CCN(CCCc2c[nH]c3ccc(-n4cnnc4)cc23)CC1	9.35
Cc1ccccc1CN(C)CC1(O)CCN(CCCc2c[nH]c3ccc(-n4cnnc4)cc23)CC1	8.89

Per the records, this molecule ( `CC(C)(C)OC(=O)NCC1(O)CCN(CCCc2c[nH]c3ccc(-n4cnnc4)cc23)CC1` ) has pIC50 equal to 7.68

###

Target: 5-hydroxytryptamine receptor 1D (Homo sapiens, UniProt P28221)
Test: Maximum stimulation of [35S]GTP gamma-S binding expressed relative to the maximal effect produced by 5-hydroxytryptamine 1D receptor
Format: functional
Output schema: class label derived from Activity. Mapping: band 1: < 70%; band 2: ≥ 70% and < 90%; band 3: ≥ 90%

query smiles	group
CC1(C)CCCN(CC2(O)CCN(CCCc3c[nH]c4ccc(-n5cnnc5)cc34)CC2)C1	band 1
CC(C)(C)OC(=O)NCC1(O)CCN(CCCc2c[nH]c3ccc(-n4cnnc4)cc23)CC1	band 2

Q: Class label required: `OC1(Cc2ccccc2)CCN(CCCc2c[nH]c3ccc(-n4cnnc4)cc23)CC1`
Ans: band 1

Q: Input `OC1(CNCc2ccccc2)CCN(CCCc2c[nH]c3ccc(-n4cnnc4)cc23)CC1` ; output its category
Ans: band 2

Q: Kindly identify the class of `OC1(CNCc2ccccn2)CCN(CCCc2c[nH]c3ccc(-n4cnnc4)cc23)CC1` .
Ans: band 3

Q: Hey, which category is `CC(=O)Nc1ccc(CNCC2(O)CCN(CCCc3c[nH]c4ccc(-n5cnnc5)cc34)CC2)cc1` in, do you know?
Ans: band 3

###

Parameter: log10 of ED50. Scope: all listed entries.
Biological target: 5-hydroxytryptamine receptor 1D (Homo sapiens, UniProt P28221)
Test: Measurement of agonist-induced [35S]-GTP gamma-S binding in CHO cells stably transfected with 5-hydroxytryptamine 1D receptor
Assay type: functional, cell-based
Values below are the log10 of the recorded ED50, with nM as the unit.

Solved entries:
query smiles	log10 of ED50
CC1(C)CCCN(CC2(O)CCN(CCCc3c[nH]c4ccc(-n5cnnc5)cc34)CC2)C1	-0.05
OC1(Cc2ccccc2)CCN(CCCc2c[nH]c3ccc(-n4cnnc4)cc23)CC1	-0.60
OC1(CNCc2ccccn2)CCN(CCCc2c[nH]c3ccc(-n4cnnc4)cc23)CC1	0.51

Form: molecule = `Cc1ccccc1CN(C)CC1(O)CCN(CCCc2c[nH]c3ccc(-n4cnnc4)cc23)CC1` ; log10 of ED50 = 0.57

According to the records, this molecule `CN(CC1CC1)CC1(O)CCN(CCCc2c[nH]c3ccc(-n4cnnc4)cc23)CC1` displays log10 of ED50 of 0.04

###

Biological target: Serotonin 1 receptors; 5-HT1B & 5-HT1D (Homo sapiens) (UniProt P28222+P28221)
Assay: Binding selectivity for h5-HT1D receptor to that of h5-HT1B receptor
Format: protein assay
# Ratio listing for each entry below

Answered examples (6):
query smiles	readout type	experimental result
CN(CC1CCCCC1)CC1(O)CCN(CCCc2c[nH]c3ccc(-n4cnnc4)cc23)CC1	Ratio	22
CN(CC1CC1)CC1(O)CCN(CCCc2c[nH]c3ccc(-n4cnnc4)cc23)CC1	Ratio	20
CC(C)(C)CNCC1(O)CCN(CCCc2c[nH]c3ccc(-n4cnnc4)cc23)CC1	Ratio	12
OC1(Cc2ccccc2)CCN(CCCc2c[nH]c3ccc(-n4cnnc4)cc23)CC1	Ratio	251
Cc1ccccc1CNCC1(O)CCN(CCCc2c[nH]c3ccc(-n4cnnc4)cc23)CC1	Ratio	21
CC(C)(C)OC(=O)NCC1(O)CCN(CCCc2c[nH]c3ccc(-n4cnnc4)cc23)CC1	Ratio	16

response.value for `CN(Cc1ccccc1)CC1(O)CCN(CCCc2c[nH]c3ccc(-n4cnnc4)cc23)CC1` (field: Ratio) = 80

Looking up `OC1(CNCc2ccccn2)CCN(CCCc2c[nH]c3ccc(-n4cnnc4)cc23)CC1` , I found its Ratio recorded as 17

Reported Ratio for `CC1(C)CCCN(CC2(O)CCN(CCCc3c[nH]c4ccc(-n5cnnc5)cc34)CC2)C1` was 29

Looking up `Cc1ccccc1CN(C)CC1(O)CCN(CCCc2c[nH]c3ccc(-n4cnnc4)cc23)CC1` , I see its Ratio listed as 68

Recorded Ratio (compound `OC1(CNCC2CC2)CCN(CCCc2c[nH]c3ccc(-n4cnnc4)cc23)CC1` ): 13

Looking up `OC1(CNCc2ccccc2)CCN(CCCc2c[nH]c3ccc(-n4cnnc4)cc23)CC1` , I found its Ratio recorded as 106

Lookup result for `CC(=O)Nc1ccc(CNCC2(O)CCN(CCCc3c[nH]c4ccc(-n5cnnc5)cc34)CC2)cc1` ; measured Ratio: 3

GET /value?item= `CN(CC(C)(C)C)CC1(O)CCN(CCCc2c[nH]c3ccc(-n4cnnc4)cc23)CC1` &field=Ratio returns 34

So, `CC(C)CN(C)CC1(O)CCN(CCCc2c[nH]c3ccc(-n4cnnc4)cc23)CC1` ? Its Ratio was 47
